Measured %Inh values are reported for all entries that follow.
System: CSNK2A1
reported conditions: concentration: 1 μM, replicates: in singlicate; n = 1;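 note: KINOMEscan kinase panel screen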
Express your answer in %, writing the number without its unit.

INSERT INTO results (smiles_data, measurement_name, units_symbol, endpoint_result) VALUES
  ('CCNc1nccc(-c2c(-c3ccc(F)cc3)ncn2C2CCN(C)CC2)n1', '%Inh', '%', 44);

Q: What value of measured %Inh is listed for "Cn1cc(-c2ccc3c(c2)CCN3C(=O)Cc2cc(F)cc(F)c2F)c2c(N)ncnc21" ?
A: 12

Q: Need %Inh, item "CC(C)c1nc(-c2ccc(F)c(NS(=O)(=O)c3c(F)cccc3F)c2)c(-c2ccnc(Nc3ccc(N4CCOCC4)nc3)n2)s1"
A: 10

Q: GET /values?readout=%Inh&item= "O=C(O)C(F)(F)F.O=c1[nH]ccc2nc(N[C@@H]3CCNC3)nc(Nc3cc(Cl)cc(Cl)c3)c12"
A: 98.9

====

Test system: PRKR
Construct: gene EIF2AK2
reported conditions: concentration: 1 μM, replicates: in singlicate; n = 1
measurement name: %Inh
Put your answer as a value accompanied by its unit after it.

Examples with answers:
INSERT INTO assay_data (smiles_data, measurement_name, endpoint_result) VALUES
  ('Cc1ccc(O)cc1Nc1ccnc2cc(-c3ccc(CN4CCCCC4)o3)ccc12', '%Inh', '1%'),
  ('O=C(Nc1n[nH]c2nc(-c3ccccc3)ccc12)C1CC1', '%Inh', '0%');

Q: Which %Inh is reported for this compound? "COC(=O)Nc1nc2ccc(Oc3ccc(NC(=O)Nc4cc(C(F)(F)F)ccc4F)cc3)cc2[nH]1.Cl"
A: 3%

Q: Recorded %Inh of "Cc1ccc(C)c(NC(=O)Nc2ccc(C)c(-c3ccc(C(=O)Nc4ccncc4)cc3)c2)c1" , please.
A: 14%

====

Tested on: IKK-epsilon
Construct: gene IKBKE
reported conditions: concentration: 1 μM, replicates: in singlicate; n = 1
// reported %Inh for each item listed
Param answer (str): number followed by unit.

Sample records with %Inh:
INSERT INTO measurements (molecule, endpoint_result) VALUES
  ('COc1cc(Nc2nccc(N3CCC(NC(=O)Nc4ccc5c(c4)OCO5)C3)n2)cc(OC)c1OC (stereo not drawn) [GSK1379766]', '29%'),
  ('COc1cccc(CC(=O)N2CCc3cc(-c4cn(C)c5ncnc(N)c45)ccc32)c1 [GSK2608899]', '75%'),
  ('Cc1ccc(-c2ccc3occ(-c4ccc(S(C)=O)cc4)c3c2)nn1 (stereo not drawn)', '0%');

For the next question, use this molecule.
Q: If you can, please state the reported %Inh value of Fc1cc(Cl)ccc1Nc1ccnc2cc(-c3ccc(CN4CCSCC4)o3)ccc12 [GW560106] .
A: 0%

====

Test system: BLK
reported conditions: concentration: 1 μM, replicates: in singlicate; n = 1
measurement name: %Inh (%)
The response must be a number in % with no trailing unit.

Below: 10 molecules and their reported %Inh.
INSERT INTO results (molecule, target_system, measurement_name, endpoint_result) VALUES
  ('Cl.N#CCc1ccc(Nc2nccc(Nc3ccc(Oc4ccccc4)cc3)n2)cc1 [GW639905]', 'BLK', '%Inh', 94.1),
  ('CN(c1ccc(NC(=O)Nc2cccc(Cl)c2)cc1)c1ccnc(N)n1.Cl [GW830707]', 'BLK', '%Inh', 0),
  ('CN(C)CCOc1ccc(-c2cc(-c3ccc(Cl)c(O)c3)c(-c3ccncc3)[nH]2)cc1.Cl.Cl [SB-684387]', 'BLK', '%Inh', 64),
  ('CS(=O)(=O)c1cccc(CNc2nc(Nc3ccc4c(c3)CCC(=O)N4)ncc2C(F)(F)F)c1', 'BLK', '%Inh', 0),
  ('Cc1ccc(C)c(NC(=O)Nc2ccc(C)c(-c3ccc(C(=O)Nc4ccncc4)cc3)c2)c1 [GSK1398473]', 'BLK', '%Inh', 0),
  ('CC(C)c1nc(-c2ccc(F)c(NS(=O)(=O)c3c(F)cccc3F)c2)c(-c2ccnc(Nc3ccc(N4CCOCC4)nc3)n2)s1 [GSK1804250]', 'BLK', '%Inh', 99.5),
  ('COC(=O)Nc1nc2ccc(Oc3ccc(CC(=O)Nc4cc(C(F)(F)F)ccc4F)cc3)cc2[nH]1 [GW680903]', 'BLK', '%Inh', 32),
  ('COc1ccc(C2=C(Nc3cccc(O)c3)C(=O)NC2=O)cc1 [SB-390766]', 'BLK', '%Inh', 0),
  ('COc1cccc(-c2nc(-c3ccccc3)[nH]c2-c2ccncc2)c1 [SB-610250]', 'BLK', '%Inh', 60),
  ('Cc1ccccc1CC(=O)N1CCc2cc(-c3cn(C)c4ncnc(N)c34)ccc21 [GSK2603346]', 'BLK', '%Inh', 49);

Q: Query (molecule): Cn1cc(-c2ccc3c(c2)CCN3C(=O)Cc2cc(F)cc(F)c2F)c2c(N)ncnc21 [GSK2634140] ; field requested: %Inh
A: 72

Q: Reported %Inh for CN(C)c1ncnc2nc[nH]c12 [SKF-31736] : what is it?
A: 0

Q: Which %Inh reading was recorded for the molecule Cc1cc(-c2c(-c3ccc(F)cc3)ncn2CCCN2CCOCC2)nc(N)n1 [SB-222517] ?
A: 8

Q: Value lookup for %Inh; key = COc1ccc(C)c(Nc2ccnc(Nc3ccc(-c4cnc[nH]4)cc3)n2)c1.Cl [GW784041]
A: 59

Q: Fill in: %Inh of O=C(Nc1n[nH]c2cc(-c3cccs3)ccc12)C1CC1 [SB-731284] is ___
A: 0

Q: Query: %Inh; subject: Nc1ncc(-c2ccc3nccc(-c4ccncc4)c3c2)cc1S(=O)(=O)N1CCCCC1 [GSK1693850]
A: 0

Q: Suppose we examine the molecule COc1cc(Nc2nccc(N3CCC(NC(=O)Nc4ccc5c(c4)OCO5)C3)n2)cc(OC)c1OC (centres unmarked) [GSK1379766] ; what %Inh value has been reported?
A: 0
